Biological target: T1, human ENTPD2 expressed on cells (human, UniProt Q9Y5L3 1-495)
T1 sequence: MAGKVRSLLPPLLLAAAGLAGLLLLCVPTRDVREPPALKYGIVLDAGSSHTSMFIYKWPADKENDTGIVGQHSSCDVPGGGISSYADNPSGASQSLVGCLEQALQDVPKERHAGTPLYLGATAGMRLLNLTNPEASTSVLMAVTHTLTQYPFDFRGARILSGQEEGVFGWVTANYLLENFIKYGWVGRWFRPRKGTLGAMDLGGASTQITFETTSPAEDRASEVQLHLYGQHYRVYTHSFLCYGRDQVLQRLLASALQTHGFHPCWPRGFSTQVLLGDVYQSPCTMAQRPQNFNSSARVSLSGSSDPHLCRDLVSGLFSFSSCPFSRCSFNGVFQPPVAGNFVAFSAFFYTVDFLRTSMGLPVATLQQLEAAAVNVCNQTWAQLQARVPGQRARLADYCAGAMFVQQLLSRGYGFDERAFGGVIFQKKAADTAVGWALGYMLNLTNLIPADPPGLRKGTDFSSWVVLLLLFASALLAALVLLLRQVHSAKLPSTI
Assay: cell-based or functional assay
property: % inhibition, Human ENTPD2 NIH/3T3 Assay (%)
State the answer as a number, implicitly in %.

response.value for ANTI-HUMAN ENTPD2 MAB4 (antibody, human IgG1, kappa, V domains shown, humanized and optimized from mAb16; human IgG1, kappa; also called Anti-ENTPD2 mAb4) VH: QIQLQESGPGLVKPSQTLSLTCTVSGYSITSGYYWNWIRQHPGKGLEWIGYISYDADNNYNPSLKNRVTISRDTSKNQFSLKLSSVTAADTAVYYCAGGYYRYGLGSYRGSYYYVMDYWGQGTTVTVSS VL: ETVLTQSPATLSVSPGERATISCKASQSVDYEGHSYMNWYQQKPGQAPRLLIYAASNLESGIPARFSGSGSGTDFTLTISSVEPEDAATYYCQQSNEDPPTFGGGTKLEIKR (field: % inhibition, Human ENTPD2 NIH/3T3 Assay) = 87

Please examine the following record next.
response.value for ANTI-HUMAN ENTPD2 MAB16 (antibody, human IgG1, kappa, V domains shown) VH: DIQLQESGPGLVKPSQSLSLTCSVTGYSITSGYYWNWIRQFPGNKLEWMGYISYDGDNNYNPSLKNRISITRDTSKNQFFLKLSSVTTEDTATYYCAGGYYRYGLSYYYVMDYWGQGTSVTVSS VL: DTVLTQSPASLAVSLGQRATISCKASQSVDYDGNSYMNWYQQKPGQPPKLLIYAASNLESGIPARFSGSGSGTDFTLNIHPVEEEDAATYYCQQSNEDPPTFGGGTKLEIKR (field: % inhibition, Human ENTPD2 NIH/3T3 Assay) = 30

Taken from patent US20220348651A1.
